Cited source for all entries: ChEMBL document CHEMBL1133464

TEST TARGET: Metabotropic glutamate receptor 2 (Homo sapiens, UniProt Q14416)
Sequence (Q14416 whole entry): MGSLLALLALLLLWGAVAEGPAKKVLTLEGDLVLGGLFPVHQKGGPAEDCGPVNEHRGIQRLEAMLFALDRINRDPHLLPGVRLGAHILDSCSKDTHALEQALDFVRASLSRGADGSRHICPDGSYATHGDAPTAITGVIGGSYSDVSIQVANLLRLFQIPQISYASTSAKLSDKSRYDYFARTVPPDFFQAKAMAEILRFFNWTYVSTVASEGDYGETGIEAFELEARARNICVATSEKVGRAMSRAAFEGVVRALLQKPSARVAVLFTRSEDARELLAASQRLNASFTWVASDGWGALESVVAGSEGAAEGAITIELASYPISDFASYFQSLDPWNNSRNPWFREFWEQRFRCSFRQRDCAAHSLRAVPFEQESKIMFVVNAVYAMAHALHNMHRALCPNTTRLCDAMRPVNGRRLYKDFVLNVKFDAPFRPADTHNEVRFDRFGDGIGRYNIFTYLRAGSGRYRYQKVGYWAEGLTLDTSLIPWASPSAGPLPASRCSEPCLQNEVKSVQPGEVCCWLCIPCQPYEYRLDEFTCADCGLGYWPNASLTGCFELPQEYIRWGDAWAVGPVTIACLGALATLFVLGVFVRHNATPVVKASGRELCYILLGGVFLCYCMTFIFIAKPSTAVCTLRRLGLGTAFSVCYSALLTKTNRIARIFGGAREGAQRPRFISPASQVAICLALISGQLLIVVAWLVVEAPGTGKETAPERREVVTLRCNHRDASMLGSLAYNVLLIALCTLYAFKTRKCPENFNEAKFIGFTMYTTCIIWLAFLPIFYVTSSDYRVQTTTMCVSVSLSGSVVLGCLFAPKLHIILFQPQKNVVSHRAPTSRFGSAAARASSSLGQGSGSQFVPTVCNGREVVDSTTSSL
MEASUREMENT PROTOCOL: Antagonist potency against cloned Metabotropic glutamate receptor 2
Type: functional
Recorded Ki for the following molecules
REPORTED ENDPOINT: Ki

molecule=Cc1cccc(/C=C/c2ccccc2)n1 reported_endpoint=Ki val="> 100 µM"
molecule=N[C@@H](Cc1cc(=O)[nH]o1)C(=O)O reported_endpoint=Ki val="> 1000 µM"
molecule="CCOC(=O)C12CC1/C(=N\\O)c1ccccc1O2 (stereo not drawn)" reported_endpoint=Ki val="> 100 µM"
molecule=Cc1ccc(O)c(/N=N/c2ccccc2)n1 reported_endpoint=Ki val="> 100 µM"
molecule="NC1(C(=O)O)CCc2cc(C(=O)O)ccc21 (stereo not drawn)" reported_endpoint=Ki val="> 1000 µM"
molecule=N[C@H](C(=O)O)C12CC(C(=O)O)(C1)C2 reported_endpoint=Ki val="> 300 µM"
molecule=Cc1cccc(C#Cc2ccccc2)n1 reported_endpoint=Ki val="> 100 µM"
molecule=CCCCc1c(C[C@H](N)C(=O)O)o[nH]c1=O reported_endpoint=Ki val="> 1000 µM"
